protocol-text: in vitro
assay-conditions: African green monkey, CC50 Vero
// values below are reported CC50
measured-metric: CC50 (µM)

[[record]]
molecule = "CC(C)c1ccc(O)c(=O)c(O)c1 [Compound 46, β-thujaplicinol, reference compound]"
measured_metric = "CC50"
result_units = "µM"
result_qualifier = ">"
endpoint_value = 120

[[record]]
molecule = "O=c1c(O)cccc(SCc2ccccc2)c1O [Compound 702]"
measured_metric = "CC50"
result_units = "µM"
result_qualifier = "="
endpoint_value = 35.6


###

System: HepDES19
Just a reminder that ties go to criterion not met: only CC50 strictly below 40 µM counts as criterion met.

[[record]]
molecule = "CSc1cccc(O)c(=O)c1O [Compound 385]"
class_name = "criterion not met"

[[record]]
molecule = "CC[C@H](C)[C@H](NC(=O)OCC1c2ccccc2-c2ccccc21)C(=O)Sc1cccccc1=O [Compound 686]"
class_name = "criterion not met"

[[record]]
molecule = "Cc1cc(O)c(=O)c(O)cc1C(=O)Nc1ccccc1 [Compound 389]"
class_name = "criterion met"

[[record]]
molecule = "CC(=O)c1c(C)cc(O)c(=O)c(O)c1-c1cccc2ccccc12 [Compound 331]"
class_name = "criterion met"

[[record]]
molecule = "O=c1c(O)cccc(SCCc2ccccc2)c1O [Compound 704]"
class_name = "criterion met"

[[record]]
molecule = "Cc1cc(O)c(=O)c(O)cc1C(=O)NCc1ccc(-c2ccccc2)cc1 [Compound 539]"
class_name = "criterion met"

[[record]]
molecule = "CC(=O)c1c(C)cc(O)c(=O)c(O)c1Br [Compound 320]"
class_name = "criterion not met"

[[record]]
molecule = "CCc1cccc(N=C(C)c2c(C)cc(=O)n(O)c2O)c1 [Compound 518]"
class_name = "criterion not met"

[[record]]
molecule = "O=c1c(O)cccc(S(=O)(=O)c2cccc3ccccc23)c1O [Compound 698]"
class_name = "criterion met"

[[record]]
molecule = "Cc1cc(O)c(=O)c(O)cc1C(=O)N1CCCCC1 [Compound 390]"
class_name = "criterion met"

[[record]]
molecule = "Cc1cc(O)c(=O)c(O)cc1C(=O)c1ccc(Br)cc1 [Compound 358]"
class_name = "criterion met"

[[record]]
molecule = "COc1ccc(/C=C/C(=O)c2ccccc(=O)c2O)cc1 [Compound 342]"
class_name = "criterion met"

[[record]]
molecule = "O=c1c(O)c(SCc2ccccc2)ccc(SCc2ccccc2)c1O [Compound 703]"
class_name = "criterion met"

[[record]]
molecule = "Cc1ccc(Sc2cccc(O)c(=O)c2O)cc1 [Compound 838]"
class_name = "criterion met"

[[record]]
molecule = "CC(=O)c1c(C)cc(O)c(=O)c(O)c1-c1ccccc1 [Compound 330]"
class_name = "criterion not met"

[[record]]
molecule = "CCCCCCSc1cccc(O)c(=O)c1O [Compound 840]"
class_name = "criterion met"

[[record]]
molecule = "COC(=O)c1c(C)cc(O)c(=O)c(O)c1O [Compound 196]"
class_name = "criterion met"

[[record]]
molecule = "Cc1cc(O)c(=O)c(O)cc1C(=O)c1ccc(-c2ccncc2)cc1 [Compound 260]"
class_name = "criterion not met"

[[record]]
molecule = "Cc1cc(O)c(=O)c(O)cc1C(=O)NCc1ccccc1 [Compound 388]"
class_name = "criterion met"

[[record]]
molecule = "CC(=Nc1ccccc1Cl)c1c(C)cc(=O)n(O)c1O [Compound 668]"
class_name = "criterion not met"

